assay: Inhibition of TARC-mediated CEM cell migration
assayReadout: IC50 (µM)

(a) Cc1csc(Nc2cccc3ccccc23)n1
(b) c1ccc2c(Nc3nc(CN(CC4CCCCC4)CC4CCCCC4)cs3)cccc2c1
Prompt line: Which of these two has the smaller recorded IC50: a or b ? State the label of the item chosen.
Response line: b
(b: 0.53 µM, a: 6.4 µM)
